Hey, just so you know, these numbers are from paper PMC11982978.

Biological target: ERK2 D319N (Mus musculus, UniProt P63085, D319N)
Construct: His6
Sequence (P63085 whole entry D319N): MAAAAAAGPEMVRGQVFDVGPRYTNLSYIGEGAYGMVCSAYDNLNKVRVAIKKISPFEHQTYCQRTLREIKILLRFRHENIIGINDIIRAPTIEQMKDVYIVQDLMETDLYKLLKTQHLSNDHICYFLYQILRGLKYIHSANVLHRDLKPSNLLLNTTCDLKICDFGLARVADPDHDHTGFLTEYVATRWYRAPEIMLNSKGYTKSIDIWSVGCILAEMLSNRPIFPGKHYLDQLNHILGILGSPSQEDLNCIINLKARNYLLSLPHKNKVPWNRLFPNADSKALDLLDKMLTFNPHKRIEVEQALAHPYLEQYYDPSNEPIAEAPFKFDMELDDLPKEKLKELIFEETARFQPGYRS
Test: Competitive peptide kinase assay (D-peptide inhibition), ERK2 D319N
Settings: Table S1, 5 μM reporter peptide, 10 nM ERK2, 10 μM ATP, three independent experiments
Peptide text beside a SMILES is read from it.
Reported IC50 values are given for each entry in this list.
Expressed in µM, but write only the number.

Example results:
• CC(C)C[C@H](NC(=O)[C@H](C)NC(=O)[C@@H](N)Cc1ccc(O)cc1)C(=O)N[C@@H](CCC(N)=O)C(=O)N[C@@H](CCC(N)=O)C(=O)N[C@@H](CCCNC(=N)N)C(=O)N[C@@H](CCCNC(=N)N)C(=O)N[C@@H](CC(C)C)C(=O)N[C@@H](CCC(N)=O)C(=O)N[C@@H](Cc1c[nH]cn1)C(=O)N[C@@H](CCCNC(=N)N)C(=O)N[C@@H](CC(C)C)C(=O)N[C@@H](CCCNC(=N)N)C(=O)N[C@@H](CC(C)C)C(=O)N[C@@H](CCCNC(=N)N)C(=O)N[C@@H](C)C(=O)O [AEBP1] (H-YALQQRRLQHRLRLRA-OH) = 120
• CC(C)C[C@H](NC(=O)CNC(=O)[C@H](CCCCN)NC(=O)[C@H](Cc1ccccc1)NC(=O)[C@H](CC(N)=O)NC(=O)[C@H](CCCCN)NC(=O)[C@H](Cc1c[nH]c2ccccc12)NC(=O)[C@H](CCCCN)NC(=O)[C@@H]1CCCN1C(=O)[C@H](CO)NC(=O)[C@H](C)NC(=O)[C@@H](N)Cc1ccc(O)cc1)C(=O)N[C@@H](CCCCN)C(=O)N[C@@H](CC(C)C)C(=O)N[C@@H](CC(C)C)C(=O)N[C@@H](CS)C(=O)O [MLXIPL] (H-YASPKWKNFKGLKLLC-OH) = 26

Next compound, IC50 to be filled in.
Per the record, CC[C@H](C)[C@H](NC(=O)[C@H](CC(C)C)NC(=O)[C@@H]1CCCN1C(=O)[C@H](CCC(=O)O)NC(=O)[C@@H]1CCCN1C(=O)[C@H](CCCNC(=N)N)NC(=O)[C@@H]1CCCN1C(=O)[C@H](CCCNC(=N)N)NC(=O)[C@H](CCC(N)=O)NC(=O)[C@H](CCCCN)NC(=O)[C@@H]1CCCN1C(=O)[C@H](C)NC(=O)[C@@H](N)Cc1ccc(O)cc1)C(=O)N[C@H](C(=O)N1CCC[C@H]1C(=O)N[C@H](C(=O)O)[C@@H](C)O)[C@@H](C)CC [ELMSAN1] (H-YAPKQRPRPEPLIIPT-OH) has IC50 of 30
